Target: MASP-2 CCP2-SP (Homo sapiens (Human))
Experiment: MASP-2 co-crystallization, X-ray crystallography and structure analysis (H-bonds, van der Waals contacts)
Conditions: Table A7-2; between pharmacophore elements of the bound compound
From the text: This example illustrates the preparation of recombinant MASP-2 protein, based on UniProt O00187, human mannan-binding lectin serine protease 2. Expression constructs for human MASP-2 CCP2-SP and CCP2-SP-6HIS were generated for recombinant expression in E. coli cells. […]
Where a name gives a salt, the structure may show the parent alone.
Answer each item with its documented Pharmacophore torsion angle a(O1, O2, N2, CA2).
Returns: the value as a bare number; no unit string appended.

### Prompt # lookup: Pharmacophore torsion angle a(O1, O2, N2, CA2) of C[C@H](NC(=O)[C@H](N)CCc1ccccc1)C(=O)NCc1ccc(N)nc1.Cl.Cl [1007_2]
### Response 131.44

### Prompt Pharmacophore torsion angle a(O1, O2, N2, CA2) for Cc1nc(N)ccc1CNC(=O)[C@H](C)NC(=O)[C@H]1C[C@H](Cc2cc(Cl)cc(Cl)c2)CN1 [compound 1435, Dihydrochloride] ?
### Response 123.48

### Prompt I'd like to know its Pharmacophore torsion angle a(O1, O2, N2, CA2). The compound in question is C[C@H](NC(=O)[C@H]1C[C@H](Cc2ccccc2)CN1)C(=O)NCc1cc(Cl)ccc1-n1cnnn1 [compound 1371, Hydrochloride]
### Response 136.54

### Prompt # lookup: Pharmacophore torsion angle a(O1, O2, N2, CA2) of Cc1nc(N)ccc1CNC(=O)[C@H](C)NC(=O)[C@H]1C[C@H](Cc2cccc(Cl)c2)CN1.Cl.Cl [1328_1]
### Response 126.19

### Prompt I have this compound here, Cc1cc(Cl)cc(CNC(=O)[C@H](C)NC(=O)[C@H]2C[C@H](Cc3ccccc3)CN2)c1O [compound 1307] , and I need its recorded Pharmacophore torsion angle a(O1, O2, N2, CA2).
### Response 138.35

### Prompt Consider the compound shown here: C[C@H](NC(=O)[C@H](N)CCc1cc(Cl)cc(Cl)c1)C(=O)NCc1ccc(C(=N)N)cc1 [compound 1118] What is its recorded Pharmacophore torsion angle a(O1, O2, N2, CA2)?
### Response 145.00

### Prompt Fill blank: measured Pharmacophore torsion angle a(O1, O2, N2, CA2) of the compound Cc1nc(N)ccc1CNC(=O)[C@H](C)NC(=O)[C@H]1C[C@@H](Cc2ccccc2)CCN1 [compound 1353] is ____.
### Response 120.30

----------
molecular target: MASP-2 CCP2-SP (Homo sapiens (Human), UniProt O00187); test: MASP-2 co-crystallization, X-ray crystallography and structure analysis (H-bonds, van der Waals contacts); conditions: Table A4-1; element C5;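 as to Ligand-pharmacophore element distance, pharmacophore element C5: distance from averaged pharmacophore element to bound ligand; missing value means element absent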
Sequence (O00187 445-686): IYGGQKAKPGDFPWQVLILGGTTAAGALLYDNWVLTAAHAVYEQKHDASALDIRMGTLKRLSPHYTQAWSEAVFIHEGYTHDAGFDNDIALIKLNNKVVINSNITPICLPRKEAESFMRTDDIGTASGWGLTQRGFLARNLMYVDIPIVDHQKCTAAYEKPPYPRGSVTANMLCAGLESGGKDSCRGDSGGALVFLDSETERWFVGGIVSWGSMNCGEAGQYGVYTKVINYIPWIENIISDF
Sequence (O00187 364-432 partner): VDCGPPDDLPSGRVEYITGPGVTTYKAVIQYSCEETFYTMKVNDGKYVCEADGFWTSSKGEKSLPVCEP
measurementName: Ligand-pharmacophore element distance, pharmacophore element C5
Form rule: numeric answer, no unit written next to it.

### Prompt Sample Cc1nc(N)ccc1CNC(=O)[C@H](C)NC(=O)[C@H]1C[C@H](Cc2ccccc2Br)CN1.O=C(O)C(F)(F)F.O=C(O)C(F)(F)F [1372_B] — what was its Ligand-pharmacophore element distance, pharmacophore element C5?
### Response 0

### Prompt Entry under review: Cc1nc(N)ccc1CNC(=O)[C@H](C)NC(=O)c1cc(Cc2ccccc2)n[nH]1 [compound 1367] . Reported Ligand-pharmacophore element distance, pharmacophore element C5?
### Response 0

### Prompt I would be grateful if you could share the reported Ligand-pharmacophore element distance, pharmacophore element C5 for C[C@H](NC(=O)[C@H]1Cc2c([nH]c3ccccc23)CN1)C(=O)NCc1ccc(C(=N)N)cc1.Cl.Cl [1097_2] .
### Response 0

### Prompt Fill in: Ligand-pharmacophore element distance, pharmacophore element C5 of Cc1nc(N)ccc1CNC(=O)[C@H](C)NC(=O)[C@H]1C[C@H](Cc2cccc(Cl)c2)CN1.Cl.Cl [1328_4] is ___
### Response 0

### Prompt Field request: Ligand-pharmacophore element distance, pharmacophore element C5 | item: C[C@H](NC(=O)[C@H]1C[C@@H](c2ccccc2)CCN1)C(=O)NCc1cc(Cl)ccc1O.Cl [1078_11]
### Response 0.41

### Prompt I would be grateful if you could share the reported Ligand-pharmacophore element distance, pharmacophore element C5 for Cc1nc(N)ccc1CNC(=O)[C@H](C)NC(=O)[C@H]1C[C@@H](c2ccccc2)CCN1C [compound 1441] .
### Response 0

### Prompt What Ligand-pharmacophore element distance, pharmacophore element C5 value was documented for this molecule, Cc1nc(N)ccc1CNC(=O)[C@H](C)NC(=O)[C@H]1C[C@H](Cc2cccc(Cl)c2)CN1.Cl.Cl [1328_1] ?
### Response 0

### Prompt Look up Ligand-pharmacophore element distance, pharmacophore element C5: C[C@H](NC(=O)[C@H]1C[C@@H](c2ccccc2)CCN1)C(=O)NCc1cc(Cl)ccc1O.Cl [1078_7]
### Response 0.61

### Prompt Entry CC(NC(=O)C1CC(Cc2ccccc2)CN1)C(=O)NCc1cnc2c(c1)c(Cl)cn2C.Cl.Cl (mixture of isomers) [1450_A] : reported Ligand-pharmacophore element distance, pharmacophore element C5 = ?
### Response 0.34

### Prompt Quick one: Ligand-pharmacophore element distance, pharmacophore element C5 for C[C@H](NC(=O)[C@H]1C[C@@H](c2ccccc2)CCN1)C(=O)NCc1cnc2[nH]cc(Cl)c2c1 [compound 1433] ?
### Response 0.2

### Prompt Please look up its Ligand-pharmacophore element distance, pharmacophore element C5: Cc1nc(N)ccc1CNC(=O)[C@H](C)NC(=O)[C@H]1C[C@@H](c2cccc3ccccc23)CCN1.Cl.Cl [1297_2]
### Response 0

### Prompt Any idea what Ligand-pharmacophore element distance, pharmacophore element C5 was measured for C[C@H](NC(=O)[C@H]1C[C@@H](c2ccccc2)CCN1)C(=O)NCc1cc(Cl)ccc1O.Cl [1078_9] ?
### Response 0.46

### Prompt Ligand-pharmacophore element distance, pharmacophore element C5 for C[C@H](NC(=O)[C@H]1C[C@@H](c2ccccc2)CCN1)C(=O)NCc1cc(Cl)ccc1O.Cl [1078_10] ?
### Response 0.3

### Prompt Can you share its Ligand-pharmacophore element distance, pharmacophore element C5? I mean this molecule: C[C@H](NC(=O)[C@H](N)CCCc1ccccc1)C(=O)NCc1ccc(C(=N)N)cc1.Cl.Cl [1042_2]
### Response 0

### Prompt Requested read-out: Ligand-pharmacophore element distance, pharmacophore element C5. Entry: C[C@H](NC(=O)[C@H](N)CCCc1ccccc1)C(=O)NCc1ccc(C(=N)N)cc1.Cl.Cl [1042_1]
### Response 0

### Prompt If you can, please state the reported Ligand-pharmacophore element distance, pharmacophore element C5 value of CC(NC(=O)C1CC(Cc2ccccc2)CN1)C(=O)NCc1cnc2c(c1)c(Cl)cn2C.Cl.Cl (stereo not drawn) [1450_B] .
### Response 1.67

### Prompt May I ask what Ligand-pharmacophore element distance, pharmacophore element C5 has been recorded for CC(NC(=O)C(CCc1ccccc1)NCc1ccc(C(=O)N2CCOCC2)cc1)C(=O)NCc1ccc(C(=N)N)cc1.Cl.Cl (stereo not drawn) [1153_A] ?
### Response 0

### Prompt Could you tell me which Ligand-pharmacophore element distance, pharmacophore element C5 is on file for C[C@H](NC(=O)[C@H]1C[C@@H](c2ccccc2)CCN1)C(=O)NCc1cc(Cl)ccc1O.Cl [1078_13] ?
### Response 0.47

----------
For each record, write down the corresponding Ligand-pharmacophore element distance, pharmacophore element CA1.
biological target: MASP-2 CCP2-SP (Homo sapiens (Human), UniProt O00187); assay: MASP-2 co-crystallization, X-ray crystallography and structure analysis (H-bonds, van der Waals contacts); conditions: Table A4-1; element CA1;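 as to Ligand-pharmacophore element distance, pharmacophore element CA1: distance from averaged pharmacophore element to bound ligand; missing value means element absent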
Where a name gives a salt, the structure may show the parent alone.
# respond with the number and nothing more

### Prompt Reported Ligand-pharmacophore element distance, pharmacophore element CA1 for C[C@H](NC(=O)[C@H]1C[C@@H](c2ccccc2)CCN1)C(=O)NCc1cnc2[nH]cc(Cl)c2c1 [compound 1433] : what is it?
### Response 0.98

### Prompt May I ask what Ligand-pharmacophore element distance, pharmacophore element CA1 has been recorded for Cc1nc(N)ccc1CNC(=O)[C@H](C)NC(=O)[C@H]1C[C@H](Cc2ccccc2)CN1 [compound 1304] ?
### Response 0.56

### Prompt I am curious: what Ligand-pharmacophore element distance, pharmacophore element CA1 value has been reported for C[C@H](NC(=O)[C@H]1C[C@@H](c2ccccc2)CCN1)C(=O)NCc1cc(Cl)ccc1O.Cl [1078_4] ?
### Response 1.62

### Prompt Can you share its Ligand-pharmacophore element distance, pharmacophore element CA1? I mean this compound: C[C@H](NC(=O)[C@H](N)C1Cc2ccccc2C1)C(=O)NCc1ccc2nc(N)[nH]c2c1 [compound 1059]
### Response 1.27

### Prompt Which measured Ligand-pharmacophore element distance, pharmacophore element CA1 value corresponds to C[C@H](NC(=O)[C@H](N)CCc1cccc(Cl)c1)C(=O)NCc1ccc(C(=N)N)cc1 [compound 1081] ?
### Response 0.48

### Prompt What value of Ligand-pharmacophore element distance, pharmacophore element CA1 has been recorded for this entry: C[C@H](NC(=O)[C@H]1C[C@@H](c2ccccc2)CCN1)C(=O)NCc1cc(Cl)ccc1O.Cl [1078_7]
### Response 1.69

### Prompt Item under review: C[C@H](NC(=O)[C@H]1C[C@@H](c2ccccc2)CCN1)C(=O)NCc1cc(Cl)ccc1O.Cl [1078_13] . Reported Ligand-pharmacophore element distance, pharmacophore element CA1?
### Response 1.62

### Prompt What measured Ligand-pharmacophore element distance, pharmacophore element CA1 goes with C[C@H](NC(=O)[C@H]1C[C@@H](c2ccccc2)CCN1)C(=O)NCc1cc(Cl)ccc1O.Cl [1078_6] ?
### Response 1.31

### Prompt What measured Ligand-pharmacophore element distance, pharmacophore element CA1 goes with Cc1nc(N)ccc1CNC(=O)[C@H](C)NC(=O)c1cc(Cc2ccccc2)n[nH]1 [compound 1367] ?
### Response 0.5

### Prompt If you can, please state the reported Ligand-pharmacophore element distance, pharmacophore element CA1 value of CC(NC(=O)C1CC(Cc2ccccc2)CN1)C(=O)NCc1cnc2c(c1)c(Cl)cn2C.Cl.Cl (centres unmarked) [1450_B] .
### Response 0.94

### Prompt Sample C[C@H](NC(=O)[C@H](N)CCCc1ccccc1)C(=O)NCc1ccc(C(=N)N)cc1.Cl.Cl [1042_3] — what was its Ligand-pharmacophore element distance, pharmacophore element CA1?
### Response 0.5

### Prompt What does the record list as Ligand-pharmacophore element distance, pharmacophore element CA1 for CC(=O)Nc1ccc(CCNC(CCc2ccccc2)C(=O)NC(C)C(=O)NCc2ccc(C(=N)N)cc2)cc1.Cl.Cl (centres unmarked) [1345_1] ?
### Response 0.51

### Prompt I'd like to know its Ligand-pharmacophore element distance, pharmacophore element CA1. The compound in question is O=c1oc(-c2ccccc2[N+](=O)[O-])nc2ccccc12 [compound 14]
### Response 1.47

### Prompt Look at this compound and give its reported Ligand-pharmacophore element distance, pharmacophore element CA1. CC(NC(=O)C(CCc1ccccc1)NCCCc1ccc(O)cc1)C(=O)NCc1ccc(C(=N)N)cc1.Cl.Cl (centres unmarked) [1145_A]
### Response 0.47

### Prompt Sample CNC(=O)c1ccc2c(=O)n(Cc3ccccc3)c(=O)n(CC(=O)NCc3ccc(C(=N)N)cc3)c2c1 [compound 2018] — what was its Ligand-pharmacophore element distance, pharmacophore element CA1?
### Response 0.54

### Prompt What does the record list as Ligand-pharmacophore element distance, pharmacophore element CA1 for Cc1nc(N)ccc1CNC(=O)[C@H](C)NC(=O)[C@H]1C[C@H](Cc2ccccc2Br)CN1.O=C(O)C(F)(F)F.O=C(O)C(F)(F)F [1372_B] ?
### Response 0.57

### Prompt Given Cc1nc(N)ccc1CNC(=O)[C@H](C)NC(=O)[C@H]1C[C@@H](Cc2ccccc2)CCN1 [compound 1353] , state its recorded Ligand-pharmacophore element distance, pharmacophore element CA1.
### Response 0.61

### Prompt # input compound: Cc1nc(N)ccc1CNC(=O)[C@H](C)NC(=O)[C@H]1C[C@@H](c2ccccc2)CCN1CCC(=O)O [compound 1411, Trifluoroacetate salt] ; wanted: its Ligand-pharmacophore element distance, pharmacophore element CA1
### Response 0.71

### Prompt Name the reported Ligand-pharmacophore element distance, pharmacophore element CA1 value associated with the compound C[C@H](NC(=O)[C@H]1C[C@@H](c2ccccc2)CCN1)C(=O)NCc1cc(Cl)ccc1O.Cl [1078_2]
### Response 1.55

### Prompt Would you kindly share the measured Ligand-pharmacophore element distance, pharmacophore element CA1 for C[C@H](NC(=O)[C@H]1C[C@H](Cc2ccccc2)CN1)C(=O)NCc1ccc(C(=N)N)cc1.Cl.Cl [1306_2] ?
### Response 0.74

### Prompt What value of Ligand-pharmacophore element distance, pharmacophore element CA1 has been recorded for this entry: C[C@H](NC(=O)[C@H](N)CCc1ccccc1)C(=O)NCc1ccc(N)nc1.Cl.Cl [1007_1]
### Response 0.35

### Prompt Can you share its Ligand-pharmacophore element distance, pharmacophore element CA1? I mean this compound: C[C@H](NC(=O)C1C[C@@H](c2ccccc2)CCN1)C(=O)NCc1ccc(C(=N)N)cc1 (stereo in doubt) [compound 1063]
### Response 0.3

### Prompt Which Ligand-pharmacophore element distance, pharmacophore element CA1 reading was recorded for the compound Cc1nc(N)ccc1CNC(=O)[C@H](C)NC(=O)[C@H]1C[C@H](Cc2cccc(-c3ccccc3)c2)CN1 [compound 1406] ?
### Response 0.56

### Prompt // lookup Ligand-pharmacophore element distance, pharmacophore element CA1 for C[C@H](NC(=O)[C@H]1C[C@H](Cc2ccccc2)CN1)C(=O)NCc1cc(Cl)ccc1-n1cnnn1 [compound 1371, Hydrochloride]
### Response 0.58

### Prompt Consider the compound shown here: Cc1nc(N)ccc1CNC(=O)C(C)NC(=O)C1CC(c2cccc3ccccc23)CCN1.Cl.Cl (centres unmarked) [1297_3] What is its recorded Ligand-pharmacophore element distance, pharmacophore element CA1?
### Response 0.33

### Prompt Quick one: Ligand-pharmacophore element distance, pharmacophore element CA1 for Cc1nc(N)ccc1CNC(=O)C(C)NC(=O)[C@H]1C[C@H](c2cccc(-c3ccccc3)c2)CN1 (stereo in doubt) [compound 1360] ?
### Response 0.57

### Prompt Requested field: Ligand-pharmacophore element distance, pharmacophore element CA1. Item: C[C@H](NC(=O)[C@H]1C[C@@H](c2ccccc2)CCN1)C(=O)NCc1cc(Cl)ccc1O.Cl [1078_10]
### Response 1.34

### Prompt Item C[C@H](NC(=O)[C@H]1C[C@H](Cc2ccccc2)CN1)C(=O)NCc1cnc2[nH]cc(Cl)c2c1 [compound 1334] has what recorded Ligand-pharmacophore element distance, pharmacophore element CA1?
### Response 1.04

### Prompt Which measured Ligand-pharmacophore element distance, pharmacophore element CA1 value corresponds to Cc1nc(N)ccc1CNC(=O)[C@H](C)NC(=O)[C@H]1C[C@@H](c2cccc3ccccc23)CCN1.Cl.Cl [1297_2] ?
### Response 0.47
